protocol.text: folding stability dG unfold (combined trypsin and chymotrypsin); higher = more stable
assay.metric: folding stability dG unfold (kcal/mol)
State just the number; it will be interpreted in kcal/mol.

1. SAGGWIWIPPDDPEDAKEWARELVLMFANHMKEQGQEDMTVDVDIHVWDPKDGNWYRIPVEFRVKPDSAGGS [r8_163_TrROS] = 2.19
2. SAGGSAGMIEVEIRPTPEGGYEVLVKFYGPGGVEVEEKKYRFGSEEEAKKFLEELAKKNGYSVKIRSAGGSA [r15_242_JUSTAS] = 3.3

Now consider the entry below.
The measured folding stability dG unfold associated with SAGGSAGGSAGGMTLEELKNLKPGEEVEIEIEVYDKNGKKVSKYRIRIYNDKIEIEKLPSAGGSAGGSAGGS [r10_394_TrROS_Hall] reads 2.71

These measurements were taken from the supplement of paper PMC12764529.
